# MEASURED_ON: human recombinant Glo-I enzyme (rhGlo-I) (Homo sapiens)
# Construct: N-terminal Met and 6-His tag (N); purchased R&D Systems; host or cells: E. coli
# ASSAY_NAME: Glyoxalase-I (Glo-I) enzyme inhibition assay
# Format: biochemical
# TEST_CONTEXT: human recombinant Glo-I; triplicates; read-out: IC50 µM ± SD
We begin with a simple list: items and their reported IC50.
// note: answer is a bare numeric in µM

Solved cases below.
{"COMPOUND": "O=c1cc(O)cc(/C=C/c2ccc(O)c(O)c2)o1", "UNITS_TEXT": "µM", "IC50": 36.4}
{"COMPOUND": "O=C(/C=C/c1ccc(O)c(O)c1)O[C@H]1[C@H](O)[C@@H](O)[C@H](OCCc2ccc(O)c(O)c2)O[C@@H]1CO [Calceolarioside A]", "UNITS_TEXT": "µM", "IC50": 44.3}

Kindly consider the entry below.
For the compound shown here, CC(/C=C/C(=O)NO)=C\[C@@H](C)C(=O)c1ccc(N(C)C)cc1 [Trichostatin A, reference compound] , give the reported IC50.
43.5

###

# MEASURED_ON: human recombinant Glo-I enzyme (rhGlo-I) (Homo sapiens, UniProt Q04760)
# Construct: N-terminal Met and 6-His tag (N); purchased R&D Systems; host or cells: E. coli
# Sequence (Q04760 2-184 limits assumed): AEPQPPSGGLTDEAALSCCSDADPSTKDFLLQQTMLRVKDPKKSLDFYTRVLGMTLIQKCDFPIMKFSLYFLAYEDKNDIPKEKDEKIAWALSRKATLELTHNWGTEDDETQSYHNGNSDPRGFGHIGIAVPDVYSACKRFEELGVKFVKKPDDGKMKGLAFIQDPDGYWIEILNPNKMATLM
# ASSAY_NAME: Glyoxalase-I (Glo-I) enzyme inhibition assay
# Assay type: biochemical
# TEST_CONTEXT: 3.125 µM; read-out: Trial one (%inhibtion)
RESULT_TYPE: inhibition at 3.125 µM
Please answer using the number first and the unit second.

{"MOLECULE": "O=c1cc(O)cc(/C=C/c2ccc(O)c(O)c2)o1", "inhibition at 3.125 µM": "10.9%"}
{"MOLECULE": "O=C(/C=C/c1ccc(O)c(O)c1)O[C@H]1[C@H](O)[C@@H](O)[C@H](OCCc2ccc(O)c(O)c2)O[C@@H]1CO [Calceolarioside A]", "inhibition at 3.125 µM": "15.4%"}
{"MOLECULE": "CC(/C=C/C(=O)NO)=C\\[C@@H](C)C(=O)c1ccc(N(C)C)cc1 [Trichostatin A, reference compound]", "inhibition at 3.125 µM": "13.2%"}

Please tell me: inhibition at 3.125 µM of O=C1c2ccc(O)c(O)c2C(=O)c2c(O)ccc(O)c21 , system human recombinant Glo-I enzyme (rhGlo-I) (Homo sapiens, UniProt Q04760)?
22.8%
